Hello, the source for this data is patent US20230272055A1, in case you need it.

Exercise: state measured kon for each of the binders provided.
target: T1, Recombinant MBP-mutCALR Type 1 fusion protein (human); experiment: SPR, IgG captured, 1:1 fit, Exp. 1
T1 construct: custom made at Cepter; also called recombinant mutCALR protein
Could you give me the number in M⁻¹ s⁻¹? Just the number is fine.

Query :: Form field: reported kon of anti-mutCALR antibody clone 40 (antibody, human IgG1, lambda, V domains shown, human IgG1) VH: EVQLVQSGAEVKKPGASVKVSCKVSGYTLTESSMHWVRQAPGKGLEWMGLVDPEDGETIYAQKFQGRVTMTEDTSTDTAYMELSSLRSEDTAVYYCAREEWSGDGDDAFDIWGQGTMVTVSS VL: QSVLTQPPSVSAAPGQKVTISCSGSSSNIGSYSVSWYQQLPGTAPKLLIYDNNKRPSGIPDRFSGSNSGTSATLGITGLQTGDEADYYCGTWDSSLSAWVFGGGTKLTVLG
Result :: 5.17e+06

Query :: // same read-out, input: anti-mutCALR antibody clone 29 (antibody, human IgG1, lambda, V domains shown, human IgG1) VH: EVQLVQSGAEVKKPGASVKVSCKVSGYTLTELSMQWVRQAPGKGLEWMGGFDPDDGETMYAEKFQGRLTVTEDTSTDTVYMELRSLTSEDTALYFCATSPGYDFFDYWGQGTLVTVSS VL: SYVLTQPPSVSVAPGKTARITCGGNNIGSKSVHWYQQKPGQAPVLVVYDDSDRPSGIPERFSGSNSGNTATLTISRVEAGDEADYYCQVWDSSSDLLIFGGGAKLTVLG
Result :: 688000

Query :: // same read-out, input: anti-mutCALR antibody clone 4 (antibody, human IgG1, lambda, V domains shown, human IgG1) VH: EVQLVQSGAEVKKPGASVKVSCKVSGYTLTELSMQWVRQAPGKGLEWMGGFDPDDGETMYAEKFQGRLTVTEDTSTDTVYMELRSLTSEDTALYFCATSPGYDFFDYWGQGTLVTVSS VL: SYVLTQPPSVSVAPGQTARITCGGNNIGSKSVHWYQQKPGQAPVLVVYDDSDRPSGIPERFSGSNSGNTATLTINRVEAGDEADYYCQVWDSSNDLLIFGGGTKLTVLG
Result :: 1.63e+06
